Recorded values, source ChEMBL document CHEMBL1201862.

Target: Delta-type opioid receptor (Homo sapiens)
Sequence (P41143 whole entry): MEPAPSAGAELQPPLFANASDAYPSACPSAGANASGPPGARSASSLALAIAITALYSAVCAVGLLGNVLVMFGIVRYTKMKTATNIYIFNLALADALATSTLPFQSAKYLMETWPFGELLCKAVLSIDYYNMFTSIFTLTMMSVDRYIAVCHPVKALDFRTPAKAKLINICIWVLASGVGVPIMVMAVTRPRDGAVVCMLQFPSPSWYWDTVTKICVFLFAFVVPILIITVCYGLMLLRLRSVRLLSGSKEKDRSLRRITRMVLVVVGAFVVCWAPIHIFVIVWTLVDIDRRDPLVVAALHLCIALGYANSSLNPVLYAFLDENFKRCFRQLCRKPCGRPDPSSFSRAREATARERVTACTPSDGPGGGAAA
Assay: Counterscreen for agonists of heterodimerization of the mu 1 (OPRM1) and delta 1 (OPRD1) opioid receptors: Luminescence-based cell-based high throughput dose response assay to identify agonists of OPRD1 homodimerization. [Related pubchem assays (depositor defined):AID504326, AID504355, AID504692, AID504904, AID504905]
Assay type: functional
Active and inactive are the calls of the source.
EC50 values, listed per item

# Compound, System Name, EC50
rows = [
    ("CCOC(=O)C1(CCCc2ccccc2)CCN(Cc2cnn(C)c2)CC1", "Delta-type opioid receptor (Homo sapiens)", "> 92.5 µM (inactive)"),
    ("Cc1ccc(-n2cc(CNC(C)c3cnn(C)c3C)c(-c3ccc(F)cc3)n2)cc1 (centres undefined)", "Delta-type opioid receptor (Homo sapiens)", "50 µM (inactive)"),
    ("CCn1cc(CNCc2cn(-c3ccccc3C)nc2-c2ccc(OC)c(F)c2)cn1", "Delta-type opioid receptor (Homo sapiens)", "34.7 µM (inactive)"),
]

Now for the compound whose EC50 we want.
Problem: Give measured EC50 for `CN(C)CCCN(C(=O)c1ccc(S(=O)(=O)N2CCc3ccccc3C2)cc1)c1nc2ccc(F)cc2s1` (Delta-type opioid receptor (Homo sapiens)).
Solution: > 92.5 µM (inactive)

---

Biological target: Peroxisome proliferator-activated receptor gamma/Nuclear receptor coactivator 1 (Homo sapiens, UniProt P37231)
Sequence (P37231 whole entry): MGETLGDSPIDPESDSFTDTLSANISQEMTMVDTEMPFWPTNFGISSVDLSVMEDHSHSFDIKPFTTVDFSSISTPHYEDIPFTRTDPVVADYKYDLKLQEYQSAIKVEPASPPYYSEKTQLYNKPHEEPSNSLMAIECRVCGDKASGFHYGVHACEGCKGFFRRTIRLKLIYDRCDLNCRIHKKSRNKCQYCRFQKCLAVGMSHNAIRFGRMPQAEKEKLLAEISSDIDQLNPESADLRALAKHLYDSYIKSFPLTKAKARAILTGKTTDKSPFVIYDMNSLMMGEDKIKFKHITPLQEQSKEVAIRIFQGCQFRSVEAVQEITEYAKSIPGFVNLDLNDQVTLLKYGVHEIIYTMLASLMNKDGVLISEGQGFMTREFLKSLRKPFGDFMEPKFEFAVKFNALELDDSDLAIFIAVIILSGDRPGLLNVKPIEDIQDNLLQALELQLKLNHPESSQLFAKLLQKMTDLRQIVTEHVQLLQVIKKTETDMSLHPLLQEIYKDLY
Sequence (Q15788 whole entry, further chain): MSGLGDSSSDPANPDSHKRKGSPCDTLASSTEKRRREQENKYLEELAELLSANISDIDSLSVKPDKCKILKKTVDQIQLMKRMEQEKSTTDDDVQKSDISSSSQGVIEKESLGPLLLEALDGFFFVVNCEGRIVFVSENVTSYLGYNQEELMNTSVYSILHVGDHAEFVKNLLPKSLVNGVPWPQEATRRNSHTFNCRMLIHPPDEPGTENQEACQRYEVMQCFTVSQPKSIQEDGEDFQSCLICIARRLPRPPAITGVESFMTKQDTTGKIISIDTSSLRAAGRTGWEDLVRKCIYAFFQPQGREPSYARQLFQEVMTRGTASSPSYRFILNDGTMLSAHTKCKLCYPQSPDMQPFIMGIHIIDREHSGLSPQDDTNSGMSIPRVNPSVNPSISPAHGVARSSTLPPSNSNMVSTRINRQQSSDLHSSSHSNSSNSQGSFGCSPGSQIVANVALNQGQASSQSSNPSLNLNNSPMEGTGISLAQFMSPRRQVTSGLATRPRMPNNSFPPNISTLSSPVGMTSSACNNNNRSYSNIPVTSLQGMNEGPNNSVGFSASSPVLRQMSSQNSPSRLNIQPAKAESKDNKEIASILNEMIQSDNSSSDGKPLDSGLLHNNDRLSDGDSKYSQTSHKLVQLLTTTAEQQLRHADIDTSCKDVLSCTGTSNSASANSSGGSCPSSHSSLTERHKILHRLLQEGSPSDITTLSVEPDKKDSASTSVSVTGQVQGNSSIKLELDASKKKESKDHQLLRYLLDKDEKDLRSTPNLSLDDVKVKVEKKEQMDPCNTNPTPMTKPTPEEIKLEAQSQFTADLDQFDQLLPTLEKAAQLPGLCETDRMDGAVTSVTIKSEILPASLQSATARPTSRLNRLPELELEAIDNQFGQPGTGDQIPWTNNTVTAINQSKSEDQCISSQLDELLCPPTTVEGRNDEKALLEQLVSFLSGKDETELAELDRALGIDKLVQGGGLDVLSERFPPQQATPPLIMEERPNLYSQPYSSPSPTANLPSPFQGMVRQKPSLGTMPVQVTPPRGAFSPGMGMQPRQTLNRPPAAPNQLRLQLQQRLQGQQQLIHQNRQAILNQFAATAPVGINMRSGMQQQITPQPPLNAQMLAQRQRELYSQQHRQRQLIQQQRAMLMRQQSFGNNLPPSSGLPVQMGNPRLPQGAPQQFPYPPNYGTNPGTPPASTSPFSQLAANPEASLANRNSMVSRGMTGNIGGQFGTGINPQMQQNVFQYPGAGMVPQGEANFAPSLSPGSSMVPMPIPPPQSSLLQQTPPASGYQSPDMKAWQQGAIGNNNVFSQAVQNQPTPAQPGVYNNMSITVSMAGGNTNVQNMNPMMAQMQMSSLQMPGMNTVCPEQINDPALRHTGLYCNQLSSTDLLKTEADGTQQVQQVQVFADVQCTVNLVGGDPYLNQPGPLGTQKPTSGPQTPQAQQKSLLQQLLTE
Experiment: TR-FRET dose response biochemical High Throughput Screening assay for agonists of the steroid receptor coactivator 1 (SRC-1) recruitment by the peroxisome proliferator-activated receptor gamma (PPAR gamma): non-selective agonists. [Related pubchem assays (depositor defined):AID1300, AID1808, AID504735, AID631]
Format: protein assay
Calls of active or inactive are those of the source.
The categories you may choose from are active, inactive

# Compound, Class Assignment
measured = [
    ("COc1c(C)cccc1C(=O)NC(=S)Nc1cccc2nsnc12", "active"),
    ("CCOc1ccc(NC(=O)CSc2ncnc3c2sc2ccccc23)cc1", "inactive"),
    ("CCn1c(=O)cc(SCC(=O)NCCN2CCN(Cc3ccccc3)CC2)c2ccccc21", "inactive"),
]

Problem: Hi, sorry to bother you, what did the test record for `CSc1cnn(Cc2ccccc2)c(=O)c1SCc1ccccc1` ?
Solution: active

Problem: Hi, sorry to bother you, what did the test record for COc1cccc2cc(C(=O)C3=C(O)C(=O)N(Cc4ccco4)C3c3cccnc3)oc12 (stereo not given) ?
Solution: inactive

---

Test: Luminescence Cell-Based Dose Response HTS to Identify Inhibitors of 5'UTR Stem-Loop Driven Prion Protein mRNA Translation in H4 Neuroglioblastoma Cells. [Related pubchem assays: 1827 (Project Summary), 1813 (Primary HTS)]
Type: functional
Active and inactive are the calls of the source.
Measurement Type: EC50

The examples below pair each entry with its known result.
# Compound, Reported Value
records = [
    ("Clc1ccccc1CNc1nc2ccccc2n2cnnc12", "> 120 µM (not active)"),
    ("N#Cc1cc2cc3c(cc2nc1SCC(=O)N1CCOCC1)OCCO3", "> 120 µM (not active)"),
    ("C/C(=N\\NC(=O)c1cc(-c2cccnc2)nc2ccccc12)c1ccc(O)cc1O", "9.7 µM (active)"),
]

Problem: # return recorded EC50 for entry CCCOc1ccccc1C1CC(=O)Nc2cc3c(cc21)OCO3 (centres undefined)
Solution: > 120 µM (not active)

---

Please consider the recorded AC50 for UniProtKB P11712 in what follows.
Sequence (P11712 whole entry): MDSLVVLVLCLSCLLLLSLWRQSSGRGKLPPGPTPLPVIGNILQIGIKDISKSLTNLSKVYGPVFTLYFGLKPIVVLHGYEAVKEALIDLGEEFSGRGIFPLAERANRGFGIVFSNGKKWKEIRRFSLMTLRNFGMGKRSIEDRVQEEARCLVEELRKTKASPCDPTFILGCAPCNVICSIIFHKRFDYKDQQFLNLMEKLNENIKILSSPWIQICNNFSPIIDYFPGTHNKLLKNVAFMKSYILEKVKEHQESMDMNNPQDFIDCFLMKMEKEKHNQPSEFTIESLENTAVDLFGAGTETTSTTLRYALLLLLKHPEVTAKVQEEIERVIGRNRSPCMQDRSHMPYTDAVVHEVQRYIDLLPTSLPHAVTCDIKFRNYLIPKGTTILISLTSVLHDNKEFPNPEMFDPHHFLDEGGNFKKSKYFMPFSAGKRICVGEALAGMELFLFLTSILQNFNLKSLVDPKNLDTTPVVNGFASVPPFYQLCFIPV

The examples below pair each entry with its known result.
# Molecule, Measurement Type, Reported Value
records = [
    ("Cc1[nH]c2ccc(O)cc2c1CCN", "AC50", "39.8 µM (inconclusive)"),
    ("CCOP(=O)(OCC)c1nc(/C=C/c2ccccc2)oc1NCc1ccccc1", "AC50", "4.47 µM (inconclusive)"),
]

Problem: # return recorded AC50 for entry `CSc1nc2ccc3nc(NC(=O)c4cccs4)sc3c2s1`
Solution: 0.355 µM (inconclusive)

Problem: # return recorded AC50 for entry `N=C(c1ccc2ccccc2c1)c1ccccc1Cc1ccccc1`
Solution: 7.94 µM (inconclusive)

---

Tested on: INS1
Experiment: INS-1E survival protection against cytokine death – cell-based, luminescence, retest, dose response (AID 449756);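 also: cell death triggered by IL-1 beta plus TNF-alpha plus IFN-gamma mixture; protective hits raise ATP signal compared with cytokine alone wells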
Assay type: functional
Conditions: Rattus norvegicus
Calls of active or inactive are those of the source.
Measurement Type: AC50

# Molecule, AC50
data = [
    ("Cc1oc2c(c1C(=O)N1CCOCC1)C(=O)c1ccccc1C2=O", "2.45 µM (active)"),
    ("O=C(N/N=C/c1ccccc1O)c1ccc2c(c1)OCO2", "2.58 µM (active)"),
]

Problem: Give measured AC50 for `Sc1nnc(-c2cc(-c3ccccc3)[nH]n2)n1/N=C/C(Br)=C/c1ccccc1` (INS1).
Solution: 9.04 µM (active)

Problem: Give measured AC50 for `O=C(C1=C[C@@H](c2ccc(C(F)(F)F)cc2)C[C@@H](OCCCCO)O1)N1CCN(Cc2ccccc2)CC1` (INS1).
Solution: 5.94 µM (active)

Problem: Give measured AC50 for `COc1nnc(-c2ccc(N3CCCCC3)c(NC(=O)C3CCCCC3)c2)c2ccccc12` (INS1).
Solution: 6.09 µM (active)

Problem: Give measured AC50 for `COc1ccc2[nH]c(C(=O)N/N=C/c3ccc(O)cc3O)cc2c1` (INS1).
Solution: 0.694 µM (active)

---

Molecular target: Orexin/Hypocretin receptor type 1 (Homo sapiens);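 also: antagonism measured against Orexin-A challenge at about its EC80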
Sequence (O43613 whole entry): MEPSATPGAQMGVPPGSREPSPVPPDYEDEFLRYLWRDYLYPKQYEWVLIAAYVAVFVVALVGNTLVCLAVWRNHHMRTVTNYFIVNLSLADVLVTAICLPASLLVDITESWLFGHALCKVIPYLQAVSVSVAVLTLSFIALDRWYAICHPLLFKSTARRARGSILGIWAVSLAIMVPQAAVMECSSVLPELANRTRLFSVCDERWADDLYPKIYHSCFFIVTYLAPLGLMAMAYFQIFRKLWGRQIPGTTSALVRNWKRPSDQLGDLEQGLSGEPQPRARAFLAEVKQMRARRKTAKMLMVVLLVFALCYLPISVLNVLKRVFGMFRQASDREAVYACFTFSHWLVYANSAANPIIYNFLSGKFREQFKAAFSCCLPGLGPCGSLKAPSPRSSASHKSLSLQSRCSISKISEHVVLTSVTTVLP
Experiment: Homogeneous Time Resolved Fluorescence (HTRF)-based cell-based high throughput dose response assay for antagonists of the orexin 1 receptor (OX1R; HCRTR1). [Related pubchem assays (depositor defined):AID434989, AID435008, AID463079, AID485270, AID492963, AID492964, AID492965, AID493232, AID504717, AID504718]
Type: functional
Activity calls are given as the source filed them.
IC50 values, listed per item

# Molecule, System Name, IC50
records = [
    ("N#CC(=C1SC=CS1)c1nc(-c2ccccc2)cs1", "Orexin/Hypocretin receptor type 1 (Homo sapiens)", "749 nM (active)"),
]

Problem: Give measured IC50 for `CSc1nc2ccc3nc(NC(=O)c4cccs4)sc3c2s1` (Orexin/Hypocretin receptor type 1 (Homo sapiens)).
Solution: 846 nM (active)

Problem: Give measured IC50 for `CCn1c(SCC(=O)Nc2ccc3c(c2)c2ccccc2n3CC)nnc1-c1cnccn1` (Orexin/Hypocretin receptor type 1 (Homo sapiens)).
Solution: 54.8 nM (active)

Problem: Give measured IC50 for `CCc1c(C)sc(N=C(S)Nc2nc(C)cc(C)n2)c1C(=O)OC` (Orexin/Hypocretin receptor type 1 (Homo sapiens)).
Solution: 2230 nM (active)

---

Please consider the recorded AC50 for UniProt:P08684 in what follows.
Sequence (P08684 whole entry): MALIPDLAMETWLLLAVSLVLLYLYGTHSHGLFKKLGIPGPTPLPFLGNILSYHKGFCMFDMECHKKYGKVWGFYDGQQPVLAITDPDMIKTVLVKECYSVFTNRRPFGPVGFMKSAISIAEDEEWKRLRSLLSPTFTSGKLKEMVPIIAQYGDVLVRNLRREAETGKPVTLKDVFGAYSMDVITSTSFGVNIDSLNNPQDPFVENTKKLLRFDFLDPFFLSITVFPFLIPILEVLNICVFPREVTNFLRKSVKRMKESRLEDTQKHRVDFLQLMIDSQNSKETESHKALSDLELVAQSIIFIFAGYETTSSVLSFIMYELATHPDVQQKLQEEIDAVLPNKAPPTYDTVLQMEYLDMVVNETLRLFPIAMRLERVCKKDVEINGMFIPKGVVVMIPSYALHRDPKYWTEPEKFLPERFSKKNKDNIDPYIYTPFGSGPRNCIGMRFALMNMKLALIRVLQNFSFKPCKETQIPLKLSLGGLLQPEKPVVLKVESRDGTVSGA

Problem: Give measured AC50 for `C#CCCCO/N=C1/C[C@@H](O)[C@@H](O)[C@@H]2[C@@H]3C(=O)N(CCC(=O)OCC)C(=O)[C@H]3CC[C@@H]12` (UniProt:P08684).
Solution: 3.16 µM (inconclusive)

Problem: Give measured AC50 for `CC[C@@H](c1ccccc1)n1c(=O)n2n(c1=O)[C@H]1[C@H](O)[C@H]3O[C@@H]3/C(=N/OC/C=C(\C)CCC=C(C)C)[C@@H]1CC2` (UniProt:P08684).
Solution: 3.98 µM (inconclusive)

Problem: Give measured AC50 for `O=C(N/N=C/c1ccc(F)cc1)c1ccc(Br)cc1` (UniProt:P08684).
Solution: 22.4 µM (inconclusive)

Problem: Give measured AC50 for `CN1CCN(c2ncc3nc(CCc4ccccc4)c(=O)n(C4CC4)c3n2)CC1` (UniProt:P08684).
Solution: 15.8 µM (inconclusive)

---

Target: Cytochrome P450 1A2 (Homo sapiens, UniProt P05177);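 also: PubChem cytochrome P450 panel assay, CYP1A2 panel member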
Sequence (P05177 whole entry): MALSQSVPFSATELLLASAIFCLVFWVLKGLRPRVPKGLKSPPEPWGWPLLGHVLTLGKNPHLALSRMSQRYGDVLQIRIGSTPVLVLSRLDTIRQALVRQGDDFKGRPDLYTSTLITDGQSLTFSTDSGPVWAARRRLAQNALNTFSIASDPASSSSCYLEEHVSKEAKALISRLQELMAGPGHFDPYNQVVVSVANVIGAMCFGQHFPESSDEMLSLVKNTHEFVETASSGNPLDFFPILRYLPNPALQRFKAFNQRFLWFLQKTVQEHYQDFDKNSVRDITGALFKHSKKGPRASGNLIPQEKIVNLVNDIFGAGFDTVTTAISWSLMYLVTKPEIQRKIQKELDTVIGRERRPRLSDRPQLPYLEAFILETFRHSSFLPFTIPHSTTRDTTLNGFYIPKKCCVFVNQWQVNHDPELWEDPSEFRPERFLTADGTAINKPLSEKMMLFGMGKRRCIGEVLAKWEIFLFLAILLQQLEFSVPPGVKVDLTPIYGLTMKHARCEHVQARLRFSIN
Measurement Type: AC50

Problem: Give measured AC50 for `CCOP(=O)(OCC)c1nc(/C=C/c2ccccc2)oc1NCc1ccccc1` (Cytochrome P450 1A2 (Homo sapiens, UniProt P05177)).
Solution: 15.8 µM (inconclusive)

Problem: Give measured AC50 for CC1=C(C(=O)Nc2cccnc2)C(c2cccnc2)n2nc(-c3cccs3)nc2N1 (configuration not stated) (Cytochrome P450 1A2 (Homo sapiens, UniProt P05177)).
Solution: 5.01 µM (inconclusive)

Problem: Give measured AC50 for `O=C(Oc1ccc(OC(=O)c2ccco2)c(S(=O)(=O)c2ccc(Br)cc2)c1)c1ccco1` (Cytochrome P450 1A2 (Homo sapiens, UniProt P05177)).
Solution: 2.24 µM (inconclusive)

Problem: Give measured AC50 for `Cn1cc(-c2nc3cnc(N4CCNCC4)nc3n(C)c2=O)c2ccccc21` (Cytochrome P450 1A2 (Homo sapiens, UniProt P05177)).
Solution: 15.8 µM (inconclusive)

Problem: Give measured AC50 for `CCCCc1ccc(-c2csc(/C(C#N)=C/c3ccc(C)o3)n2)cc1` (Cytochrome P450 1A2 (Homo sapiens, UniProt P05177)).
Solution: 2 µM (inconclusive)

Problem: Give measured AC50 for `Cn1cc(-c2nc3cnc(N4CCOCC4)nc3n(C3CC3)c2=O)c2ccccc21` (Cytochrome P450 1A2 (Homo sapiens, UniProt P05177)).
Solution: 3.16 µM (inconclusive)

Problem: Give measured AC50 for `CC1(C)c2ssc(=S)c2-c2ccccc2N1C(=O)CSC1=NCCS1` (Cytochrome P450 1A2 (Homo sapiens, UniProt P05177)).
Solution: 2 µM (inconclusive)
